meta.source: patent US11426397B2

# test_target: GPR6 receptor expressed in CHO-K1 cells (Homo sapiens, UniProt P46095)
# Construct: expressed in transfected cells
# Sequence (P46095 whole entry): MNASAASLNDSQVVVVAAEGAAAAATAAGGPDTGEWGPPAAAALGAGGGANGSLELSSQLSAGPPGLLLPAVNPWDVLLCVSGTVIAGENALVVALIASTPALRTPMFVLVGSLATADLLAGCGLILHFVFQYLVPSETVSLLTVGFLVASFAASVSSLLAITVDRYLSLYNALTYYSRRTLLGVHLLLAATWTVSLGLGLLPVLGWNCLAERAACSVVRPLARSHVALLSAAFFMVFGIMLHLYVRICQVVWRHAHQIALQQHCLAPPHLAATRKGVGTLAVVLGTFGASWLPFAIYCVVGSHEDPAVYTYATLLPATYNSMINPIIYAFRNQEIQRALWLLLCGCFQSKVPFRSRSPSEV
# assay_explanation: In vitro inhibition of cAMP (EC50), cell-based HTRF cAMP assay
# stated_conditions: inhibition of constitutive cAMP activity of GPR6 in CHO-K1 cells
measured_attribute: pEC50, in vitro inhibition of cAMP

INSERT INTO measurements (compound, test_target, endpoint_result) VALUES
  ('N#Cc1ccc(N2CCC(Oc3ccc(F)cc3F)CC2)c(NC(=O)c2ccc(F)cn2)c1 [Example 106]', 'GPR6 receptor expressed in CHO-K1 cells (Homo sapiens, UniProt P46095)', 6.5),
  ('COc1ccc(C(F)(F)F)cc1C(=O)Nc1cc(C#N)ccc1N1CCC(Oc2ccc(F)cc2F)CC1 [Example 208]', 'GPR6 receptor expressed in CHO-K1 cells (Homo sapiens, UniProt P46095)', 6.9),
  ('Cn1cccc(C(=O)Nc2cc(C#N)ccc2N2CCC(C(F)(F)c3cc(Cl)ccc3F)CC2)c1=O [Example 89]', 'GPR6 receptor expressed in CHO-K1 cells (Homo sapiens, UniProt P46095)', 6.3),
  ('Cn1cccc(C(=O)Nc2cc(S(C)(=O)=O)ccc2N2CCC(Oc3ccc(F)cc3F)CC2)c1=O [Example 3]', 'GPR6 receptor expressed in CHO-K1 cells (Homo sapiens, UniProt P46095)', 7.5),
  ('N#Cc1ccc(N2CCC(Oc3ccc(F)cc3F)CC2)c(NC(=O)c2cccn(C(F)F)c2=O)c1 [Example 277]', 'GPR6 receptor expressed in CHO-K1 cells (Homo sapiens, UniProt P46095)', 6.5),
  ('COc1cc(Cl)c(Cl)cc1C(=O)Nc1cc(C#N)ccc1N1CCC(Oc2ccc(F)cc2F)CC1 [Example 190]', 'GPR6 receptor expressed in CHO-K1 cells (Homo sapiens, UniProt P46095)', 6.5),
  ('Cc1cccnc1C(=O)Nc1cc(C#N)cnc1N1CCC(Oc2ccc(F)cc2F)CC1 [Example 59]', 'GPR6 receptor expressed in CHO-K1 cells (Homo sapiens, UniProt P46095)', 7.3),
  ('N#Cc1ccc(N2CCC(Oc3ccc(F)cc3F)CC2)c(NC(=O)c2ccc(O)nn2)c1 [Example 52]', 'GPR6 receptor expressed in CHO-K1 cells (Homo sapiens, UniProt P46095)', 6.2),
  ('COc1cn(-c2ccccc2)nc1C(=O)Nc1cc(C#N)ccc1N1CCC(Oc2ccc(F)cc2F)CC1 [Example 219]', 'GPR6 receptor expressed in CHO-K1 cells (Homo sapiens, UniProt P46095)', 6.3),
  ('COc1c(F)cc(F)cc1C(=O)Nc1cc(C#N)ccc1N1CCC(Oc2ccc(F)cc2F)CC1 [Example 207]', 'GPR6 receptor expressed in CHO-K1 cells (Homo sapiens, UniProt P46095)', 6.8),
  ('COc1nn(C)cc1C(=O)Nc1cc(C)cnc1N1CCN(Cc2ccc(C#N)c(F)c2)CC1 [Example 102]', 'GPR6 receptor expressed in CHO-K1 cells (Homo sapiens, UniProt P46095)', 6.1),
  ('COc1ncccc1C(=O)Nc1cc(C#N)ccc1N1CCN(C(=O)c2ccc(Cl)cc2)CC1 [Example 285]', 'GPR6 receptor expressed in CHO-K1 cells (Homo sapiens, UniProt P46095)', 6.9),
  ('COc1ncccc1C(=O)Nc1cc(C#N)cnc1N1CCN(Cc2ccc(F)cc2)CC1 [Example 75]', 'GPR6 receptor expressed in CHO-K1 cells (Homo sapiens, UniProt P46095)', 7.3),
  ('Cc1cc(C(=O)Nc2cc(C#N)ccc2N2CCC(Oc3ccc(F)cc3F)CC2)no1 [Example 41]', 'GPR6 receptor expressed in CHO-K1 cells (Homo sapiens, UniProt P46095)', 6.4),
  ('COc1ncccc1C(=O)Nc1cnc(C(N)=O)cc1N1CCC(Oc2ccc(F)cc2F)CC1 [Example 269]', 'GPR6 receptor expressed in CHO-K1 cells (Homo sapiens, UniProt P46095)', 6.9);
